tested.system: N-acetyllactosaminide alpha-1,3-galactosyltransferase (Sus scrofa, UniProt P50127)
Sequence (P50127 whole entry): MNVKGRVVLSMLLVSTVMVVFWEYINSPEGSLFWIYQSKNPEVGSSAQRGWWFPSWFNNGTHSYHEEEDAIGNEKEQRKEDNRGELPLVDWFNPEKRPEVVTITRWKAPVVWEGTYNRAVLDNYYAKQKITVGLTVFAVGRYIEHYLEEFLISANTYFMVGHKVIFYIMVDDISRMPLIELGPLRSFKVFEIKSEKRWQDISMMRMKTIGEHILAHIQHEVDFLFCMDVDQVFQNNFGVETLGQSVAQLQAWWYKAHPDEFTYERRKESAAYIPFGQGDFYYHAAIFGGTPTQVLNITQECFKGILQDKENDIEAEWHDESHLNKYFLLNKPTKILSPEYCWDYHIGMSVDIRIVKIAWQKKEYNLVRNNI
test.method.notes: Compound was tested for the inhibition porcine alpha -1,3 -galactosyl transferase (alpha-1,3-GalT); No inhibition

compound | tested.system | Ki
CC(=O)NC1C(Oc2ccc3cc(Br)ccc3c2)OC(CO)C(O)C1O (centres undefined) | N-acetyllactosaminide alpha-1,3-galactosyltransferase (Sus scrofa, UniProt P50127) | Not Active
COc1ccc2cc(OC3OC(CO)C(O)C(O)C3NC(C)=O)ccc2c1 (centres undefined) | N-acetyllactosaminide alpha-1,3-galactosyltransferase (Sus scrofa, UniProt P50127) | Not Active
CC(=O)NC1C(Oc2ccc3ccccc3c2)OC(CO)C(O)C1O (centres undefined) | N-acetyllactosaminide alpha-1,3-galactosyltransferase (Sus scrofa, UniProt P50127) | Not Active
CC(=O)NC1C(Oc2cccc3ccccc23)OC(CO)C(O)C1O (centres undefined) | N-acetyllactosaminide alpha-1,3-galactosyltransferase (Sus scrofa, UniProt P50127) | Not Active
